// data source = PubChem BioAssay (EPA / NIEHS)

Read-out: CD69, CD69 (gene 969)
Assay: BSK_SAg_CD69: BioMAP Diversity Plus: SAg Assay for CD69 Biomarker Activity (AID 2283089)
Settings: primary human HUVEC with PBMC; actives raise or lower the signal
The source made the active and inactive calls. Rule for the calls: active = hit-call score of the fitted dose curve at least 0.9, where 1 is the maximum; inactive = score below 0.9.
A correct response names exactly one class from TRUE = active, FALSE = inactive

Use these answered entries as a reference point.
Cc1ccc(N=CN(C)C=Nc2ccc(C)cc2C)c(C)c1 | TRUE
CC1(C)CCC(=Cc2ccc(Cl)cc2)C1(O)Cn1cncn1 (configuration not stated) | FALSE
Cc1c(COC(=O)[C@@H]2[C@H](/C=C(\Cl)C(F)(F)F)C2(C)C)cccc1-c1ccccc1 | TRUE
O=C(O)c1c(Cl)ccc2cc(Cl)cnc12 | FALSE
CCOc1cc(C(C)(C)C)ccc1C1COC(c2c(F)cccc2F)=N1 (configuration not stated) | TRUE

[in] Kindly provide the recorded test outcome for the following molecule: COC(=O)NS(=O)(=O)c1ccc(N)cc1
[out] FALSE

[in] Entry CCC(C)n1c(=O)[nH]c(C)c(Br)c1=O (configuration not stated) : call = ?
[out] FALSE

[in] Status in this test for CNC(=O)N(C)c1nnc(C(C)(C)C)s1 ?
[out] FALSE

----------
Read-out: Forkhead box O1 (FOXO1), FOXO1 (gene 2308)
Assay: LTEA_HepaRG_FOXO1: Life Technologies and Expression Analysis (LTEA) Assay for Forkhead box O1 (FOXO1) using HepaRG (AID 2283456)
Settings: mRNA level, 48 h; actives raise or lower the signal
Active and inactive are the calls of the source. The calls were made as follows: active = hit-call score of the fitted dose curve at least 0.9, where 1 is the maximum; inactive = score below 0.9.
// classify into 1 (active), 0 (inactive)

CC(C)Oc1cccc(NC(=O)c2ccccc2C(F)(F)F)c1 | 0
CCOP(=S)(OCC)Oc1nc(Cl)n(C(C)C)n1 | 0
CCCCC(O)(Cn1cncn1)c1ccc(Cl)cc1Cl (configuration not stated) | 1
O=C(Nc1ccccc1-c1ccc(Cl)cc1)c1cccnc1Cl | 0
CN/C(=N\[N+](=O)[O-])NCc1cnc(Cl)s1 | 0

[in] Field: outcome | Entry: Cc1ccc(N=CN(C)C=Nc2ccc(C)cc2C)c(C)c1
[out] 0

[in] Could you please tell me the result logged for Nc1c(Cl)c(Cl)nc(C(=O)O)c1Cl in this assay?
[out] 0

[in] # lookup: test call for COCC(C)N(C(=O)CCl)c1c(C)csc1C (configuration not stated)
[out] 0

----------
Test: UKN2_HCS_IMR90_cell_viability: Viability Assessment in the University of Konstanz (UKN) Leist Lab Neural Crest Cell Migration Assay in human induced IMR90 Pluripotent Stem Cells (UKN2) (AID 2284233);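 note: viability of neural crest cells differentiated from IMR90 iPSC measured by calcein-AM fluorescence imaging; cells exposed to compound for 24 h after a 24 h migration phase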
Description: UKN2_HCS_IMR90 is a cell-based, multiplexed-readout assay screening for neural crest cell migration and cell viability that uses IMR90 (neural crest cells differentiated from iPSC), a human embryo cell line, with measurements taken at […] after chemical dosing in a microplate: 96-well plate. […] The wells are coated with PLO/laminin/fibronectin. […] Quantification of migration and viability is done by high content imaging analysis.
Active and inactive are the calls of the source. How the source made its calls: active means hit-call score of the fitted dose curve at least 0.9, where 1 is the maximum; inactive means score below 0.9.
In this exercise, the only acceptable responses are 1 = active, 0 = inactive

CS(=O)(=O)c1cc(C(F)(F)F)ccc1C(=O)c1cnoc1C1CC1 | 0
COP(=S)(OC)SCn1nnc2ccccc2c1=O | 1
CO/N=C(/C1=NOCCO1)c1ccccc1Oc1ncnc(Oc2ccccc2Cl)c1F | 0

[in] Test call, this molecule: CC(C)(C)C(=O)C(Oc1ccc(Cl)cc1)n1cncn1 (stereo unspecified)
[out] 0

[in] Field: outcome | Entry: COC(=O)N(C(=O)N1CO[C@@]2(C(=O)OC)Cc3cc(Cl)ccc3C2=N1)c1ccc(OC(F)(F)F)cc1
[out] 1

[in] Called result for CS(=O)(=O)c1ccc(C(=O)C2C(=O)CCCC2=O)c([N+](=O)[O-])c1
[out] 0
